Numbers sourced from patent US20200024354A1.

target: T1, recombinant human BAFF-Fc (Sino Biological) (human, UniProt Q9Y275 134-285); experiment: blocking ELISA, VNAR diluted with 1.14 nM BAFF-Fc; binding of BAFF-Fc to coated BAFF-R extracellular domain
T1 construct: Bought reagent; also called hBAFF; not shown: Fc moiety detected by anti-human Fc
T1 sequence (Q9Y275 134-285): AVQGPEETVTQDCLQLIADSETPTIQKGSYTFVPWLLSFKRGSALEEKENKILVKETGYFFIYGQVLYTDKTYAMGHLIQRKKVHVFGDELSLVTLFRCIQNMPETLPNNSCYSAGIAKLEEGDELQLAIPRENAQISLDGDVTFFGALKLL

binder: ID2-101B05 (VNAR, Nurse shark VNAR single domain, monomer) VNAR: AARVDQTPRSVTKETGESLTINCVLRDSICALSSTHWYRKKSGSTNEESISKGGRYVETVNSGSKSFSLRINDLTVEDSGTYRCKVNHDLLTSSRRCQSQIKDVYGGGTVVTVNA
IC50: 148 nM
--
binder: ID2-101A05 (VNAR, Nurse shark VNAR single domain, tested as monomer) VNAR: AARVDQTPQTITKETGESLTINCVLRDNNCALSTTYWYRKKSGSTNEENISKGGRYVETVNSGSKSFSLRINDLTVEDSGTYRCKVSKDWLLCRDRGRRETDVYGDGTAVTVNA
IC50: 13.8 nM
--
binder: ID2-101B07 (VNAR, Nurse shark VNAR single domain, monomer) VNAR: AARVDQTPRSVTKETGESLTINCVLRDSICALSSTHWYRKKSGSTNEESISKGGRYVETVNSGSKSFSLRINDLTVEDSGTYRCKVHGGRSTGLCGDVLLAGDVYGGGTAVTVNA
IC50: 6.8 nM
--
binder: ID2-101B12 (VNAR, Nurse shark VNAR single domain, monomer) VNAR: AARVDQTPQTITKETGESLTINCVLRDSNCALSSTYWYRKKSGSTNEESISKGGRYVETVNSGSKSFSLRINDLTVEDSGTYRCKVFIDPLLCSRDALGFSDVYGDGTAVTVNA
IC50: 9.32 nM
